tested on: PDC KRAS tumor spheroids with HUVEC/MSC, viability; experiment: Anticancer human tumor 349418-098-R-PDC patient-derived lung adenocarcinoma cell line growth inhibition [KRAS2]; details: compound 0.316 µM; stronger effect = lower value;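 note: spheroids exposed to compounds for seven days before readout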
Known viability, T/C of a selection of molecules

CCN1CCN(Cc2ccc(Nc3ncc(F)c(-c4cc(F)c5nc(C)n(C(C)C)c5c4)n3)nc2)CC1: 14.5% [middle of 5 runs]
CCNC(=O)CC1N=C(c2ccc(Cl)cc2)c2cc(OC)ccc2-n2c(C)nnc21 (stereo not given): 30.4% [middle of 5 runs]
CC(=O)OC12COC1CC(O)C1(C)C(=O)C(O)C3=C(C)C(OC(=O)C(O)C(NC(=O)OC(C)(C)C)c4ccccc4)CC(O)(C(OC(=O)c4ccccc4)C21)C3(C)C (stereo not given): 22.6% [middle of 5 runs]

In: Could you tell me which viability, T/C is on file for COc1cc2nccc(Oc3ccc(NC(=O)C4(C(=O)Nc5ccc(F)cc5)CC4)cc3)c2cc1OC ?
Out: 94.4% [middle of 5 runs]

In: Could you tell me which viability, T/C is on file for Cn1nccc1Nc1nccc(-c2cc3c(s2)C(C)(C)N(CCN2CCOCC2)C3=O)n1 ?
Out: 21.2% [middle of 5 runs]
